Values from ChEMBL document CHEMBL5034005

# Experiment notes: Plasma concentration in BALB/c mouse at 100 mg/kg, po measured after 2 hrs by HPLC-MS/MS analysis
# Type: ADME, organism-based

- Smiles data: "Cc1nc(NCc2c(F)cccc2F)c2c(-c3ccnc(N)c3)c[nH]c2n1"
  concentration at 2 h: "12200 ng/mL"
